- TARGET DESC: human PAH with the R408W mutation (Homo sapiens, UniProt P00439, R408W)
- Construct: expressed in transfected cells
- Sequence (P00439 whole entry R408W): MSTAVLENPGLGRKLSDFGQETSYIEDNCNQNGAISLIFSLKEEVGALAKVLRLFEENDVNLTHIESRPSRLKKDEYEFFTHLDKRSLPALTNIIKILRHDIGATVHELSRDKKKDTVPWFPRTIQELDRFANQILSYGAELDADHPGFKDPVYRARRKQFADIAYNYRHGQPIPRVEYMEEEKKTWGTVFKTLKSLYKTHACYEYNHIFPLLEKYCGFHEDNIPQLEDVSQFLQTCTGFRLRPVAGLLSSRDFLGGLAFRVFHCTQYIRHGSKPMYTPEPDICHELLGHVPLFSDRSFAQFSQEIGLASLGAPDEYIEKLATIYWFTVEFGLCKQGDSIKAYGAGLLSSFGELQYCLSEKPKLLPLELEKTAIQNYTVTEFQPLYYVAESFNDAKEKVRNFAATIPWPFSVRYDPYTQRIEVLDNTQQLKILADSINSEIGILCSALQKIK
- ASSAY EXPLANATION: Cell Based Phenylalanine Flux Assay;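 further: after compound treatment, cells received sepiapterin plus isotope-labelled Phenylalanine for 4 hours, then labelled Tyrosine in the medium was quantified, 10-point 2-fold dilution series run in duplicate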
- CONDITIONS USED: A375 cells expressing human PAH R408W; 24 hrs compound incubation; 13C-Tyrosine by LC-MS; average where tested multiple times; read-out: AC50
# reported AC50; entries follow

See these solved cases before continuing.
{"COMPOUND": "CC(C)(C)c1nnc(N2CCc3[nH]cnc3[C@H]2c2cc3c(C(F)F)cccn3n2)o1 [Example 1825]", "TARGET DESC": "human PAH with the R408W mutation (Homo sapiens, UniProt P00439, R408W)", "OBSERVATION TYPE": "AC50", "ASSAY VALUE": "0.5 to 1 µM"}
{"COMPOUND": "CC(C)c1cccn2nc([C@H]3c4nc[nH]c4CCN3c3nnc(C4CC4)o3)cc12 [Example 2168]", "TARGET DESC": "human PAH with the R408W mutation (Homo sapiens, UniProt P00439, R408W)", "OBSERVATION TYPE": "AC50", "ASSAY VALUE": "1 to 5 µM"}
{"COMPOUND": "c1ccc(N2CCc3[nH]cnc3[C@@H]2c2cc3ccccn3n2)cc1 [Example 2238]", "TARGET DESC": "human PAH with the R408W mutation (Homo sapiens, UniProt P00439, R408W)", "OBSERVATION TYPE": "AC50", "ASSAY VALUE": "1 to 5 µM"}
{"COMPOUND": "COc1cccn2nc([C@@H]3c4nc[nH]c4CCN3c3nnc(C(F)(F)F)o3)cc12 [Example 2164]", "TARGET DESC": "human PAH with the R408W mutation (Homo sapiens, UniProt P00439, R408W)", "OBSERVATION TYPE": "AC50", "ASSAY VALUE": "< 0.5 µM"}
{"COMPOUND": "CC(C)c1cccn2nc([C@@H]3c4nc[nH]c4CCN3C(=O)c3nnc(-c4ccccn4)o3)cc12 [Example 1905]", "TARGET DESC": "human PAH with the R408W mutation (Homo sapiens, UniProt P00439, R408W)", "OBSERVATION TYPE": "AC50", "ASSAY VALUE": "< 0.5 µM"}

IN: Requested read-out: AC50. Entry: Cc1cccn2nc([C@@H]3c4nc[nH]c4CCN3C(=O)c3nnc(-c4cnn(C)c4)s3)cc12 [Example 2047]
OUT: 0.5 to 1 µM

IN: Follow-up entry: Fc1cccc(F)c1-c1nnc(N2CCc3[nH]cnc3[C@@H]2c2cc3ccccn3n2)o1 (single isomer, unassigned) [Example 1842]
OUT: > 5 µM
